Recorded IC50 for the following molecules
- measuredOn: Mek1 (Homo sapiens (Human), UniProt Q02750)
- Sequence (Q02750 whole entry, species assumed): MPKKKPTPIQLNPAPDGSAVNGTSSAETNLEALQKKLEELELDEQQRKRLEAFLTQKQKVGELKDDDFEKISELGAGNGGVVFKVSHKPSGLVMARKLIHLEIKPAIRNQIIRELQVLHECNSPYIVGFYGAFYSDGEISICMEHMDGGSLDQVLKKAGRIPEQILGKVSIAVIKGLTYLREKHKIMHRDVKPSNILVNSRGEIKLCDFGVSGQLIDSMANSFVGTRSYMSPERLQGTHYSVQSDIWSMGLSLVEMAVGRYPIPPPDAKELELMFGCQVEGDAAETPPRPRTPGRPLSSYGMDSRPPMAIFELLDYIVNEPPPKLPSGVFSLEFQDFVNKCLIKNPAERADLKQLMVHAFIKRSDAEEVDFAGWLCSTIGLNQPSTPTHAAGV

# chemSmiles, IC50
measured = [
    ("Cn1c(Nc2ccc(I)cc2F)c(C(=O)NOCC(C)(C)O)c2c(c1=O)CCC2", "< 5000 nM"),
]

Asked: Determine from records and report IC50 for Cn1c(Nc2ccc(I)cc2F)c(-c2nnc(N)o2)c2c(c1=O)CCC2
Given back: < 5000 nM

Asked: Determine from records and report IC50 for Cn1c(Nc2ccc(I)cc2F)c(C(=O)NOCCO)c2c(c1=O)CCC2
Given back: < 500 nM

Asked: Determine from records and report IC50 for Cn1c(Nc2ccc(I)cc2Cl)c(C(=O)NOCCO)c2c(c1=O)CCC2
Given back: < 500 nM

Asked: Determine from records and report IC50 for C[C@@H](O)CONC(=O)c1c2c(c(=O)n(C)c1Nc1ccc(I)cc1F)CCC2
Given back: < 1000 nM
